method.description: Measurement of maximum absorption wavelength
Type: physicochemical
experimental.setup: solution in a good solvent, spectrophotometer UV-3150, 250 to 800 nm
observation.type: Second dichroic material maximum absorption wavelength (nm)

> print(dat)
                                smiles.data  experimental.value
1  CC(=O)OCCCCCCCCCOc1ccc(N=Nc2ccc(N=Nc3ccc(N(C)CCOC(C)=O)cc3)cc2)cc1                 465
2  CCC(=O)OCCCCCCCCCOc1ccc(N=Nc2ccc(N=Nc3ccc(N(CC)CCOC(=O)CC)cc3)cc2)cc1                 471
3  CCC(=O)OCCCCCCCCCOc1ccc(N=Nc2ccc(N=Nc3ccc(N(CC)CCC#N)cc3)cc2)c(Cl)c1                 460
4  CCC(=O)OCCN(C)c1ccc(N=Nc2ccc(N=Nc3ccc(OCCCCCCCCCOC(C)=O)cc3)cc2)cc1                 466
5  C=CC(=O)OCCN(CC)c1ccc(N=Nc2ccc(N=Nc3ccc(OCCCCCCCCCOC(=O)CC)cc3)cc2)cc1                 471
6  CCN(CC)c1ccc(N=Nc2ccc(N=Nc3ccc(OCCCCCCCCCOC(C)=O)cc3)cc2)cc1                 484
